These measurements were taken from patent US20080114005A1.

parameter.measured: melting point

Just so you know, measured melting point for Cc1nc2ccccc2c(=O)n1CCCOc1ccc(SC(C)(C)C(=O)O)cc1 came out at 144 to 146 °C

Just so you know, measured melting point for CCCc1nn(CC)c2c(=O)n(CCCOc3ccc(SC(C)(C)C(=O)O)cc3)c(C)nc12 came out at 118 to 120 °C

Just so you know, measured melting point for CCCc1nn(C)c2c(=O)n(CCCOc3ccc(OC(C)(C)C(=O)O)cc3)cnc12 came out at 136 to 138 °C

Just so you know, measured melting point for CCc1nc2ccccc2c(=O)n1CCOc1ccc(SC(C)(C)C(=O)O)cc1 came out at 148 to 150 °C

Just so you know, measured melting point for CCCc1nn(CC)c2c(=O)n(CCOc3ccc(SC(C)(C)C(=O)O)cc3)c(CC)nc12 came out at 123 to 125 °C
